- System: OVCAR-4 ovarian
- RUN_DESCRIPTION: NCI tumour cell line growth inhibition, 48 h
MEASURED_METRIC: TGI

Note to self: TGI of O=C1CC(c2c(-c3ccccc3)[nH]c3ccccc23)C(=O)N1c1ccccc1 (stereo not given) with OVCAR-4 ovarian was > 100 µM

OVCAR-4 ovarian TGI of CNCCN[C@@H]1c2cc3c(cc2[C@@H](c2cc(OC)c(O)c(OC)c2)[C@H]2C(=O)OC[C@@H]21)OCO3 is > 100 µM

Known value: OVCAR-4 ovarian TGI of the compound O=C1CNC(=O)/C(=C/c2c[nH]c3ccccc23)N1 equals > 100 µM

Lab note: compound CCOC(=O)Nc1sc2c(c1C#N)CC(C)CC2 (stereo not given) tested on OVCAR-4 ovarian; recorded TGI was > 100 µM

Noted TGI for CC1=C(/C=C/C(=O)CC(=O)/C=C/C2=C(C)CCCC2(C)C)C(C)(C)CCC1 , tested on OVCAR-4 ovarian: > 100 µM

Item CCOC(=O)Nc1nc2ccccc2[nH]1 ; assay system OVCAR-4 ovarian; TGI reported as > 100 µM

Hey, OVCAR-4 ovarian data for Cc1cn(C2C=CC(COP(=O)(OCc3ccc([N+](=O)[O-])o3)N(C)CCCCCl)O2)c(=O)[nH]c1=O (stereo not given) : TGI came out at 17.2 µM

Given the compound COc1cc(-n2cc(-c3ccccc3)[nH]c2=O)cc(OC)c1OC and test system OVCAR-4 ovarian, the measured TGI is 52.8 µM

Entry CNC(=O)N(CCC#N)CCN(C(=O)N(C)C)c1ccccc1 : TGI on OVCAR-4 ovarian = > 100 µM

TGI for OVCAR-4 ovarian with input N#Cc1c(C#N)c(-c2ccccc2)n(Cc2ccccc2)c1N equals > 100 µM

The recorded TGI with OVCAR-4 ovarian for CN1CC(c2ccccc2)C(O)(C2(c3ccccc3)CN(C)CC(c3ccccc3)C2=O)C(c2ccccc2)C1 (stereo not given) was > 100 µM

Entry C=C1[C@H]2O[C@H]2[C@@H](OC(C)=O)[C@@]2(C)[C@@H](OC(C)=O)C[C@@H](OC(=O)CCC)[C@@](C)(O)[C@@H]2[C@@H](OC(C)=O)[C@]2(O)[C@@H](C)C(=O)O[C@H]2[C@H]1Cl under OVCAR-4 ovarian had TGI of > 100 µM

I looked up Nc1c(OCC(=O)O)ccc2cc(S(=O)(=O)O)ccc12 and its TGI for OVCAR-4 ovarian was > 100 µM

Record C=CC(COC(=O)C(C)(C)OC(C)=O)c1ccc(OC(=O)C(C)C)c(OC)c1 (stereo not given) has OVCAR-4 ovarian TGI equal to 22.4 µM

# Cn1c(=O)c2sc3c4sc5c(=O)n(C)c6ccccc6c5c4sc3c2c2ccccc21 with OVCAR-4 ovarian: TGI is > 100 µM

# value of TGI, OVCAR-4 ovarian, item O=C1C[C@H](COCc2ccccc2)NC(=O)C[C@H](COCc2ccccc2)NC(=O)C[C@H](COCc2ccccc2)N1 = > 100 µM

Entry O=C(Cc1nc2sc3c(c2c(=O)[nH]1)CCCC3)Nc1ccccc1 , tested on OVCAR-4 ovarian, has a reported TGI of > 100 µM

Tested on OVCAR-4 ovarian: O=C(CC(O)(C(F)(F)F)C(F)(F)Cl)CC(O)(C(F)(F)F)C(F)(F)Cl (stereo not given) . Observed TGI: > 10 µM

Recorded TGI for CCOC(=O)c1nc2ccccc2nc1NCc1ccc(OC)c(OC)c1 on OVCAR-4 ovarian was > 100 µM

Form: item CC(C)(C)OC(=O)N1CC(CCl)c2ccc(O)cc21 (stereo not given) ; test system OVCAR-4 ovarian; TGI: 1.39 µM

* * *

- System: SF-268 CNS
- RUN_DESCRIPTION: NCI tumour cell line growth inhibition, 48 h
MEASURED_METRIC: TGI

According to the records, this molecule CCOC(=O)Nc1sc2c(c1C#N)CC(C)CC2 (stereo not given) displays TGI of 96.6 µM

The molecule identified as CO/N=C(/C)c1cccc(Nc2nc3ccc(Cl)cc3c3[nH]c4ccccc4c23)c1 registered its TGI at 29.5 µM

Sample O=S(=O)(NCCNc1nccc(-c2c(-c3ccc(F)c(O)c3)nc3sccn23)n1)c1ccc(Cl)cc1 ; TGI observed: 13.4 µM

Value of measured TGI for the entry O=C(O)CCO/N=C1/C(c2c(O)[nH]c3ccccc23)=Nc2ccccc21 : > 100 µM

Form field TGI, entry CSc1nc(Nc2ccccc2Cl)c2c(N)nn(C)c2n1 : > 100 µM

The molecule identified as C=C1C(=O)O[C@H]2C1C[C@@H](O)/C(C)=C/CC[C@@]1(C)O[C@H]21 (stereo not given in full) registered its TGI at > 100 µM

TGI in this record for CNCC/C=C1\c2cc3c(cc2-c2c1c1cc(OC)c(OC)cc1c(=O)n2C)OCO3 : 25.1 µM

TGI reported for this molecule C/C(=N\NC(N)=S)c1ccc(C)c(C)c1 : > 100 µM

For this molecule ( COC(=O)[C@H](Cc1ccccc1)NC(=O)N(CCC#N)CCCCN(CCC#N)C(=O)N[C@@H](Cc1ccccc1)C(=O)OC ), measured TGI is > 100 µM

Reported TGI ( O=C(/C=C/c1ccc(OCc2ccccc2)cc1)NCc1ccc(C(=O)NCCc2c[nH]c3ccccc23)cc1 ) = 52.4 µM

The value of TGI measured for the molecule CCOC(=O)c1nc2ccccc2n(CC)c1=O turned out to be > 100 µM

Kindly note the recorded TGI for COc1ccc2c(c1)c1c(n2CCN2CCOCC2)-c2cccc(OC)c2CC1 , which is > 100 µM

For Cc1ccccc1NC(=O)/C=N/O the molecule record lists TGI as > 100 µM

Lookup result for C[C@@H](CC(=O)O)OC1OC(COC(=O)C(C)(C)C)C(OC(=O)C(C)(C)C)C(OC(=O)C(C)(C)C)C1OC(=O)C(C)(C)C (stereo not given in full) ; measured TGI: > 100 µM

// COC(=O)c1c(C)[nH]c2c1C(=O)C(=O)c1nc(C)c(C)nc1-2 : TGI value = 23.6 µM

Summary for this molecule, Cc1csc(NNC(N)=O)n1 : TGI is > 100 µM

Form field TGI, entry Cc1cc(N(CCC#N)CCC#N)ccc1N=Nc1cc(Cl)ccc1Cl : 29.9 µM

Lookup result for C=C1C(=O)OC2C1C(OC(=O)/C(C)=C/C)CC(O)(CCl)C1C(O)C=C(C)C21O (stereo not given) ; measured TGI: > 69.5 µM

Record CNC(=O)c1cc(Oc2cccc3nc(NC(=O)Nc4cc(C(F)(F)F)cc(C(F)(F)F)c4)ccc23)ccn1 . Reported TGI: 39.4 µM

Given item O=[N+]([O-])c1ccc(-n2nc3ccc4c(no[n+]4[O-])c3[n+]2[O-])c([N+](=O)[O-])c1 , the value recorded as its TGI is 13.8 µM

* * *

- Test system: OVCAR-3 ovarian
- RUN_DESCRIPTION: NCI tumour cell line growth inhibition, 48 h; in the data active means GI50 below about 0.43 µM; inactive means the rest
I would appreciate it if you answered using one of these outcomes: YES for active, NO for inactive

Ask: Status in this test for N#CC1=C(N)NC(=S)NC1c1ccc(-c2ccc(-c3nc4ccccc4o3)cc2)s1 (stereo not given) ?
Result: NO

Ask: Call for entry O=C(O)c1cc2ccccc2c2c3c(ccc12)OCO3 :
Result: NO

Ask: Hey, what did the test say about CCCCCCCCCC[C@@H](O)[C@@H]1CC[C@@H]([C@@H]2CC[C@@H]([C@@H](O)CCCCCCCCCC[C@H](O)CC3=CC(C)OC3=O)O2)O1 (stereo not given in full) ?
Result: NO

Ask: For Cc1cc(C(=O)/C=C/c2ccc[nH]2)ccc1-n1ccc(C(F)(F)F)n1 , what call appears in the results of this test?
Result: NO

Ask: Hi team, can someone confirm the assay call for CCCCCCCCCCCCCCCCCCNCc1ccc(Cl)cc1 ?
Result: NO

Ask: For O=C(NCCc1ccccc1)Nc1ccc2cc3ccc(NC(=O)NCCc4ccccc4)cc3nc2c1 , what call appears in the results of this test?
Result: NO

Ask: So what was the verdict on O=C1Nc2cc(-c3cccc(O)c3)ccc2/C1=C/c1ccc[nH]1 in this test?
Result: NO

Ask: Can you look up the reported call for Cc1ccc(Nc2cc(Cl)c([N+](=O)[O-])cc2[N+](=O)[O-])cc1 for me?
Result: NO

Ask: Per the assay record, what outcome was assigned to CNC(=O)c1cc(Oc2cccc3nc(NC(=O)Nc4cc(C(F)(F)F)cc(C(F)(F)F)c4)ccc23)ccn1 ?
Result: NO

Ask: Which result was noted for this compound in the test: CC[C@@]1(OC(=O)CN(C)C)C(=O)OCc2c1cc1n(c2=O)Cc2cc3c(N)cccc3nc2-1
Result: YES

# credit: PubChem BioAssay (NCI)
